System: Blumeria graminis f. sp. tritici
PROTOCOL_DETAILS: Test C: wheat powdery mildew, preventive spray on wheat seedlings
Assay type: in vivo
CONDITION: 50 ppm, rated after 8 days, 100 = 100% disease control, 0 = no control
Measured Test C disease control rating (wheat powdery mildew) values are reported for all entries that follow.
Report the figure in % without appending any unit label.

Worked cases, Test C disease control rating (wheat powdery mildew) given:
Cc1cc(Cl)cc([N+](=O)[O-])c1Nc1c(-c2ccc(F)cc2Cl)c(C)nn1C; 99
Cc1nn(C)c(Nc2ccccc2[N+](=O)[O-])c1-c1c(F)cccc1F; 93

Could you share what Test C disease control rating (wheat powdery mildew) was measured for `CCc1nn(C)c(Nc2c(F)cc(F)cc2[N+](=O)[O-])c1-c1ccc(F)cc1F` , tested on Blumeria graminis f. sp. tritici?
100

Then `COc1ccc(-c2c(C)nn(C)c2Nc2c(Cl)cccc2[N+](=O)[O-])c(Cl)c1` ?
21

Then `COc1cc(Cl)c(Nc2c(-c3ccc(F)cc3F)c(C)nn2C)c([N+](=O)[O-])c1` ?
99

Then `Cc1nn(C)c(Nc2c(F)cc(Br)cc2[N+](=O)[O-])c1-c1ccc(Cl)cc1Cl` ?
47

Then `Cc1cc(Cl)c(Nc2c(-c3ccc(F)cc3Cl)c(C)nn2C)c([N+](=O)[O-])c1` ?
100

Then `COc1cc(F)c(-c2c(C)nn(C)c2Nc2c(Cl)cccc2[N+](=O)[O-])c(F)c1` ?
96

Then `Cc1nn(C)c(Nc2c(F)cc(Br)cc2[N+](=O)[O-])c1-c1ccc(C#N)cc1Cl` ?
90

Then `Cc1nn(C)c(Nc2ccc(F)cc2[N+](=O)[O-])c1-c1c(F)cccc1Cl` ?
98

Then `Cc1nn(C)c(Nc2ccc(Br)cc2[N+](=O)[O-])c1-c1ccc(F)cc1Br` ?
84

Then `COc1ccc(-c2c(C)nn(C)c2Nc2c(F)cccc2[N+](=O)[O-])c(C)c1` ?
89

Then `COc1ccc(-c2c(C)nn(C)c2Nc2c(C)cccc2[N+](=O)[O-])c(Cl)c1` ?
78

* * *

Test system: Blumeria graminis f. sp. tritici
PROTOCOL_DETAILS: Test C: wheat powdery mildew, preventive spray on wheat seedlings
Format: in vivo
CONDITION: Blumeria graminis, 192 h, 10 ppm, rated after 8 days, 100 = 100% disease control, 0 = no control, read-out: Test C disease control rating (wheat powdery mildew)
Text: General protocol for preparing test suspensions for Tests A-F: the test compounds were first dissolved in acetone in an amount equal to 3% of the final volume and then suspended at the desired concentration (in ppm) in acetone and purified water (50/50 mix by volume) containing 250 ppm of the surfactant PEG400 (polyhydric alcohol esters). The resulting test suspensions were then used in Tests A-F. The test suspension was sprayed to the point of run-off on wheat seedlings. […]
MEASURED_QUANTITY: pest or weed control at 10 ppm (%)
Report the figure in % without appending any unit label.

Worked cases, pest or weed control at 10 ppm given:
Cc1nn(C)c(Nc2c(F)cccc2[N+](=O)[O-])c1-c1ccc(F)cc1Br [Compound 60]; 85
Cc1nn(C)c(Nc2c(F)cccc2[N+](=O)[O-])c1-c1c(F)cc(F)cc1Cl [Compound 68]; 96

Fill blank: measured pest or weed control at 10 ppm of the compound Cc1cc(F)c(Nc2c(-c3ccc(F)cc3Cl)c(C)nn2C)c([N+](=O)[O-])c1 [Compound 93] is ____.
97

Then Cc1nn(C)c(Nc2c(F)cccc2[N+](=O)[O-])c1-c1ccc(F)cc1Cl [Compound 112] ?
98

Then CCc1nn(C)c(Nc2c(F)cccc2[N+](=O)[O-])c1-c1ccc(F)cc1Cl [Compound 72] ?
81
